Consider the following molecules; for each one, report its pIC50.
# system name: SHP2 (Homo sapiens (Human), UniProt Q06124)
# Sequence (Q06124 whole entry): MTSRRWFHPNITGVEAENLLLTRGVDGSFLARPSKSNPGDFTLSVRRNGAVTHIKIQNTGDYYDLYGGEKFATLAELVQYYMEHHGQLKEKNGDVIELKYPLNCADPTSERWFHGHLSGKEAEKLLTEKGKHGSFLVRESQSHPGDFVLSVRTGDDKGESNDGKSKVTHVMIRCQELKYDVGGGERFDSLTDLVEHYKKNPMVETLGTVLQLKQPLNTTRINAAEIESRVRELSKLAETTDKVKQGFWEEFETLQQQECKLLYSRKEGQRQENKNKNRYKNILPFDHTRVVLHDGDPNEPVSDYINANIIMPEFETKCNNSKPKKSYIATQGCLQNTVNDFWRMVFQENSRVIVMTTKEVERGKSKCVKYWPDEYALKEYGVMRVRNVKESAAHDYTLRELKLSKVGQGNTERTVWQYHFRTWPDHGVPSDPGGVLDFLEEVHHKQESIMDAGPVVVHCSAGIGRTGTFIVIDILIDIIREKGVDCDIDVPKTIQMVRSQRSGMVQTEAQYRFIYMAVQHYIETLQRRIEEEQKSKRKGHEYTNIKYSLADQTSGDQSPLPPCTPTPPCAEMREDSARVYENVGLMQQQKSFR
# experiment notes: SHP2 Allosteric Inhibition Assay
# assay setup: 0.5 nM SHP2 activated with 0.5 μM peptide IRS1_pY1172(dPEG8)pY1222; surrogate substrate DiFMUP; prompt fluorescence
Give bare numbers, as −log10 of the molar value.

{"molecule": "N#CC1(CN)CCN(c2cnc(Sc3cccc(NC(=O)c4c(O)nc5n(c4=O)CCCC5)c3Cl)c(N)n2)CC1", "pIC50": 6.59}
{"molecule": "C[C@@H]1OCC2(CCN(c3cnc(Sc4cccc(NC(=O)c5c(O)nc6n(c5=O)CCCC6)c4Cl)c(N)n3)CC2)[C@@H]1N", "pIC50": 7.64}
{"molecule": "Nc1nc(N2CCC(N)(CF)CC2)cnc1Sc1cccc(NC(=O)c2c(O)nc3n(c2=O)CCCC3)c1Cl", "pIC50": 8.23}

For every listed record, write down its pIC50.
1. CC1(N)CCN(c2cnc(Sc3cccc(NC(=O)c4c(O)c5ccccc5[nH]c4=O)c3Cl)c(N)n2)CC1
2. Cn1c(=O)c(C(=O)Nc2cccc(Sc3ncc(N4CCC(C)(CN)CC4)nc3N)c2Cl)c(O)c2c(C3CC3)csc21
3. O=C(Nc1cccc(Sc2ccc3nc(N4CCCCC4)[nH]c3n2)c1Cl)c1c(O)c2nccnc2[nH]c1=O
4. O=C(Nc1cccc(Sc2ccc3nc(N4CCCCC4)[nH]c3n2)c1Cl)c1c(O)nc2ccccn2c1=O
5. CC1(N)CCN(c2nnc(Sc3cccc(NC(=O)c4c(O)nc5ccccn5c4=O)c3Cl)c(N)n2)CC1
6. NCC1(O)CCN(c2cnc(Sc3cccc(NC(=O)c4c(O)nc5n(c4=O)CCCC5)c3Cl)c(N)n2)CC1
7. CC1(N)CCN(c2cnc(Sc3cccc(NC(=O)c4c(O)nc5ccccn5c4=O)c3Cl)c(N)n2)CC1

Reply:
1: 7.14; 2: 5.99; 3: 7.44; 4: 7.21; 5: 7.96; 6: 7.92; 7: 8.22

For every listed record, write down its pIC50.
1. CCC1C(O)=C(C(=O)Nc2cccc(Sc3ccc4nc(N5CCCCC5)[nH]c4n3)c2Cl)C(=O)N1c1ccccc1 (stereo not drawn)
2. O=C(Nc1cccc(Sc2ccc3nc(N4CCCCC4)[nH]c3n2)c1Cl)C1=C(O)[C@H](c2ccccc2)NC1=O
3. NCC1CCN(c2cnc(Sc3cccc(NC(=O)c4c(O)nc5ccccn5c4=O)c3Cl)c(N)n2)C1 (stereo not drawn)

Reply:
1. 7.28
2. 7.05
3. 7.89

For every listed record, write down its pIC50.
1. Nc1nc(N2CCC3(CCC[C@H]3N)CC2)cnc1Sc1cccc(NC(=O)c2c(O)nc3ccccn3c2=O)c1Cl
2. CC1(CN)CCN(c2nnc(Sc3cccc(NC(=O)c4c(O)nc5ccccc5c4O)c3Cl)c(N)n2)CC1

Reply:
8.30
7.42
